# test target: T1, recombinant cynomolgus PDL1 (cynomolgus monkey, UniProt G7PSE7 19-238)
# T1 construct: also called cynom; PDL1
# T1 sequence (G7PSE7 entry or part of it): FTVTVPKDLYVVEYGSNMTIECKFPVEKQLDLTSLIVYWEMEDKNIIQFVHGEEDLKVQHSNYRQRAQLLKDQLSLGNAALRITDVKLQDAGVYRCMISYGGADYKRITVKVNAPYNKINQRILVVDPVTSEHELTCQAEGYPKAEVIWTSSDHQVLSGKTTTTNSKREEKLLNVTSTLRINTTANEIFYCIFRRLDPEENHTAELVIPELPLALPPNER
# test description: SPR
parameter measured: Kd (nM)
// units = nM; emit number, no label

// returns reported Kd for input PRO4245 (scFv, anti-PDL1 scFv) scFv: DIQMTQSPSSLSASVGDRVTITCQASQSIGTYLAWYQQKPGKPPKLLIYRGGILASGVPSRFSGSGSGTDFTLTISSLQPEDFATYYCQSNFYSDSTTIGPNAFGTGTKVTVLGGGGGSGGGGSGGGGSGGGGSQQLVESGGGLVQPGGSLRLSCAASGFSFNSDYWIYWVRQAPGKGLEWIASIYGGSSGNTQYASWAQGRFTISKDNSKNTVYLQMNSLRAEDSAVYFCARGYVDYGGATDLWGQGTLVKVSS
0.032
